# SYSTEM_UNDER_TEST: UniProtKB P04818
# Sequence (P04818 2-313 limits assumed): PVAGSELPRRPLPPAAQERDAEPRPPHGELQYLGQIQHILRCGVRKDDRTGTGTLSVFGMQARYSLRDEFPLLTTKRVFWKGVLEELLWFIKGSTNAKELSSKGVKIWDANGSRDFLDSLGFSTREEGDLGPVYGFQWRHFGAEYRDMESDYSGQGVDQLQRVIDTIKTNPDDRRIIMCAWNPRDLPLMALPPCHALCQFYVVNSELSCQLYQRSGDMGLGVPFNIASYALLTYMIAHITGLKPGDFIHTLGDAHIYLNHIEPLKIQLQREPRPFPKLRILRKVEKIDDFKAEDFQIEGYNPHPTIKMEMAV
# TEST_SUMMARY: Inhibition constants against 5,10-methylenetetrahydrofolate for thymidylate synthase, human enzyme (tritium release)
# Assay type: biochemical
# MEASUREMENT_SETUP: cofactor as variable substrate, pH 7.6, 24° C., read-out: Ki Data, human thymidylate synthase
# Method: Determination of Inhibition Constants Against 5,10-Methylenetetrahydrofolate for the Enzyme Thymidylate Synthase Inhibition constants, Ki, slope and Ki, intercept [W. W. Cleland, Biochim. Biophys. […] Experimental results were analyzed by EZ-FIT, a nonlinear regression analysis program (Perrella Scientific, Springfield, Pa.) which was used to fit all data points simultaneously to a mixed noncompetitive inhibition scheme.
pKi: −log10 of the molar value.
// not fulfilled strictly below 5 in pKi; fulfilled otherwise

input: Check this molecule for pKi at or above 5: COc1ccc(-c2cncn2Cc2cccc3nc(C)[nH]c(=O)c23)cc1 [Compound 33A]
output: not fulfilled

input: Check this molecule for pKi at or above 5: Cc1nc2ccc(O)c(Sc3ccncc3)c2c(=O)[nH]1 [Compound 15A]
output: not fulfilled

input: Check this molecule for pKi at or above 5: Cc1nc2ccc(C)c(Sc3ccnc(C(F)(F)F)c3)c2c(=O)[nH]1 [Compound 17A]
output: fulfilled

input: Check this molecule for pKi at or above 5: Cc1nc2cccc(Cn3cncc3-c3ccc([N+](=O)[O-])cc3)c2c(=O)[nH]1 [Compound 32A]
output: not fulfilled

input: Check this molecule for pKi at or above 5: Cc1ccc2nc(N)[nH]c(=O)c2c1Sc1ccnnc1 [Compound 30A]
output: fulfilled

input: Check this molecule for pKi at or above 5: Cc1nc2cccc(Sc3cc[n+](Cc4ccccc4)cc3)c2c(=O)[nH]1 [Compound 22A]
output: fulfilled

input: Check this molecule for pKi at or above 5: Cc1nc2ccc(C)c(Sc3nnc(C)s3)c2c(=O)[nH]1 [Compound 11A]
output: fulfilled

input: Check this molecule for pKi at or above 5: Cc1nc2cccc(C(O)(c3ccccc3)c3ccccc3)c2c(=O)[nH]1 [Compound 6A]
output: not fulfilled

input: Check this molecule for pKi at or above 5: Cc1nc2cccc(Sc3ccncc3)c2c(=O)[nH]1 [Compound 7A]
output: fulfilled

input: Check this molecule for pKi at or above 5: Cc1nc2ccc(C)c(Sc3ccnnc3)c2c(=O)[nH]1 [Compound 29A]
output: fulfilled

input: Check this molecule for pKi at or above 5: Cc1nc2cccc(Cn3cncc3-c3ccccc3)c2c(=O)[nH]1 [Compound 31A]
output: not fulfilled

----------
E. coli TS (thymidylate synthase) (Escherichia coli, UniProt P0A884) measurements of pKi, listed per entry.
Sequence (P0A884 whole entry): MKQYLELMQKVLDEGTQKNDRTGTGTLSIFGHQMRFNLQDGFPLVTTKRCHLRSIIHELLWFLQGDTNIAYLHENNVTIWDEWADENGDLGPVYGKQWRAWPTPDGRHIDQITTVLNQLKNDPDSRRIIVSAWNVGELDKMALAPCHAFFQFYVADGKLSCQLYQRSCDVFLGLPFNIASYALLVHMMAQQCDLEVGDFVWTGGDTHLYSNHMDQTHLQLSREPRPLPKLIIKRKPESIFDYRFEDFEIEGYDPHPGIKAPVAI
Scale: pKi equals -log10([C]), with [C] in mol/L.

input: Could you share what pKi was measured for Cc1nc2ccc(C)c(Sc3ccncc3)c2c(=O)[nH]1 [Compound 8A] , tested on E. coli TS (thymidylate synthase) (Escherichia coli, UniProt P0A884)?
output: 6.05

input: Could you share what pKi was measured for Cc1nc2cccc(Sc3cc[n+](Cc4ccccc4)cc3)c2c(=O)[nH]1 [Compound 22A] , tested on E. coli TS (thymidylate synthase) (Escherichia coli, UniProt P0A884)?
output: 5.03

input: Could you share what pKi was measured for Cc1nc2cccc(Cn3cncc3-c3ccccc3)c2c(=O)[nH]1 [Compound 31A] , tested on E. coli TS (thymidylate synthase) (Escherichia coli, UniProt P0A884)?
output: 4.68

input: Could you share what pKi was measured for Cc1nc2cccc(Sc3ccccn3)c2c(=O)[nH]1 [Compound 20A] , tested on E. coli TS (thymidylate synthase) (Escherichia coli, UniProt P0A884)?
output: 3.51

input: Could you share what pKi was measured for Cc1ccc2nc(N)[nH]c(=O)c2c1Sc1ccncc1 [Compound 14A] , tested on E. coli TS (thymidylate synthase) (Escherichia coli, UniProt P0A884)?
output: 6.82
